Known MIC of a selection of compounds
Tested on: Micrococcus luteus
// return numeric value only (unit: µM, not printed)

INSERT INTO results (compound, measurementname, reported) VALUES
  ('CC(C)C[C@H](NC(=O)[C@H](Cc1ccccc1)NC(=O)CNC(=O)[C@H](CC(C)C)NC(=O)[C@@H](N)Cc1ccccc1)C(=O)N[C@@H](Cc1ccccc1)C(=O)N[C@@H](CCCCN)C(=O)N[C@H](C(=O)N[C@@H](C)C(=O)N[C@@H](CO)C(=O)N[C@@H](CCCCN)C(=O)O)C(C)C [FLGFLFKVASK]', 'MIC', 9.95);

Now look at this one.
## Input Item under review: CC[C@H](C)[C@H](NC(=O)[C@@H](N)Cc1ccccc1)C(=O)NCC(=O)N[C@@H](C)C(=O)N[C@@H](CC(C)C)C(=O)N[C@@H](CC(C)C)C(=O)N[C@@H](CCCN=C(N)N)C(=O)N1CCC[C@H]1C(=O)N[C@@H](C)C(=O)N[C@@H](CC(C)C)C(=O)N[C@@H](CCCCN)C(=O)N[C@@H](CC(C)C)C(=O)N[C@@H](CC(C)C)C(=O)N[C@@H](C)C(=O)NCC(=O)N[C@@H](CCCCN)C(N)=O [FIGALLRPALKLLAGK] . Reported MIC?
## Output 4

* * *

Tested on: Staphylococcus aureus KCTC 1621
measurementName: MIC (µM)
// return numeric value only (unit: µM, not printed)

Reference set, count: 2
INSERT INTO assay_data (smilesstring, measurementname, reported) VALUES
  ('CC[C@H](C)[C@H](NC(=O)[C@H](CCCCN)NC(=O)[C@H](CCCCN)NC(=O)[C@H](Cc1ccccc1)NC(=O)[C@H](CC(C)C)NC(=O)[C@H](CCCCN)NC(=O)[C@H](Cc1c[nH]c2ccccc12)NC(=O)[C@@H](N)CCCCN)C(=O)N1CCC[C@H]1C(=O)N[C@@H](CC(C)C)C(=O)N[C@@H](CCCCN)C(=O)N[C@@H](CCCCN)C(=O)N[C@@H](Cc1ccccc1)C(N)=O', 'MIC', 12.5),
  ('CC[C@H](C)[C@H](NC(=O)[C@H](CS)NC(=O)[C@H](Cc1cnc[nH]1)NC(=O)[C@H](C)NC(=O)[C@H](C)N)C(=O)N[C@@H](C)C(=O)N[C@@H](CC(C)C)C(=O)N[C@@H](CCCN=C(N)N)C(=O)N[C@@H](CCCCN)C(=O)NCC(=O)N[C@@H](Cc1ccc(O)cc1)C(=O)N[C@@H](CCCCN)C(N)=O', 'MIC', 30);

## Input Item under review: CC(C)C[C@H](NC(=O)[C@H](CCCCN)NC(=O)[C@H](CCCCN)NC(=O)[C@H](CC(C)C)NC(=O)[C@H](CC(C)C)NC(=O)[C@H](CCCCN)NC(=O)[C@H](CCCCN)NC(=O)[C@H](CC(C)C)NC(=O)[C@H](CCCCN)NC(=O)[C@H](CCCCN)NC(=O)[C@H](CCCN=C(N)N)NC(=O)[C@H](CC(C)C)NC(=O)[C@H](CCCN=C(N)N)NC(=O)[C@H](CCCCN)NC(=O)[C@H](CC(C)C)NC(=O)[C@H](CCCN=C(N)N)NC(=O)CN)C(=O)N[C@@H](CO)C(N)=O . Reported MIC?
## Output 4

* * *

Assay system Micrococcus luteus ATCC 4698; read-out recorded as MIC.
// return numeric value only (unit: µM, not printed)

INSERT INTO assay_data (smilesstring, readoutunits, reported) VALUES
  ('CC(C)C[C@H](NC(=O)[C@H](CC(C)C)NC(=O)[C@H](CC(C)C)NC(=O)[C@@H]1CCCN1C(=O)[C@H](CC(C)C)NC(=O)[C@@H](N)Cc1ccccc1)C(=O)N[C@@H](C)C(=O)NCC(=O)N[C@@H](CC(C)C)C(=O)N1CCC[C@H]1C(=O)N[C@@H](CC(C)C)C(=O)N[C@@H](CCCCN)C(=O)N[C@@H](CC(C)C)C(=O)N[C@H]1CSSC[C@@H](C(=O)O)NC(=O)[C@H](CCCCN)NC(=O)[C@H](CCCCN)NC(=O)[C@H](Cc2ccccc2)NC(=O)[C@H](CC(C)C)NC(=O)[C@H](Cc2ccccc2)NC1=O', 'µM', 2.74);

Now look at this one.
## Input Item under review: CC[C@H](C)[C@H](N)C(=O)N[C@@H](CC(N)=O)C(=O)N[C@@H](Cc1c[nH]c2ccccc12)C(=O)N[C@@H](CC(C)C)C(=O)N[C@@H](CCCCN)C(=O)N[C@H](C(=O)N[C@@H](C)C(=O)N[C@@H](CCCCN)C(=O)N[C@@H](CCCCN)C(=O)N[C@H](C(=O)N[C@@H](CCCCN)C(=O)NCC(=O)N[C@@H](CCSC)C(=O)N[C@@H](CC(C)C)C(N)=O)C(C)C)[C@@H](C)CC . Reported MIC?
## Output 1.22

* * *

Tested on: Staphylococcus aureus KCTC 1621
measurementName: MIC (µM)

INSERT INTO measurements (smilesstring, measurementname, reported) VALUES
  ('CC[C@H](C)[C@H](NC(=O)CNC(=O)[C@H](CC(C)C)NC(=O)[C@H](CCCN=C(N)N)NC(=O)[C@H](CCCCN)NC(=O)[C@H](Cc1ccccc1)NC(=O)[C@@H](NC(=O)[C@H](CCCCN)NC(=O)[C@H](CCCCN)NC(=O)[C@H](C)N)C(C)C)C(=O)NCC(=O)N[C@@H](C)C(=O)N[C@H](C(=O)N[C@@H](CC(C)C)C(=O)N[C@@H](CCCCN)C(=O)N[C@H](C(=O)N[C@@H](CC(C)C)C(=O)N[C@H](C(=O)N[C@@H](Cc1c[nH]c2ccccc12)C(=O)NCC(=O)O)[C@@H](C)O)C(C)C)C(C)C', 'MIC', 0.78),
  ('CC[C@H](C)[C@H](NC(=O)[C@H](CC(C)C)NC(=O)[C@@H](N)CC(C)C)C(=O)N[C@H](C(=O)N[C@@H](CC(C)C)C(=O)N[C@@H](CCCN=C(N)N)C(=O)N[C@@H](CCCN=C(N)N)C(=O)N[C@@H](CCCN=C(N)N)C(=O)N[C@@H](Cc1c[nH]c2ccccc12)C(=O)N[C@@H](CCCN=C(N)N)C(=O)N[C@@H](CCCCN)C(=O)N[C@@H](CCC(N)=O)C(=O)N[C@@H](C)C(=O)N[C@@H](CCCCN)C(=O)N[C@@H](C)C(=O)N[C@@H](CCCCN)C(=O)N[C@@H](CO)C(=O)N[C@@H](CCCCN)C(N)=O)[C@@H](C)CC', 'MIC', 4);

[P] CC[C@H](C)[C@H](NC(=O)[C@H](C)N)C(=O)N[C@@H](CCCN=C(N)N)C(=O)N[C@@H](CS)C(=O)N[C@@H](CC(C)C)C(=O)N[C@@H](C)C(=O)N[C@@H](CCCCN)C(=O)N[C@@H](CCCN=C(N)N)C(=O)N[C@@H](CCCN=C(N)N)C(=O)N[C@@H](CCCCN)C(N)=O
[Q] CC[C@H](C)[C@H](NC(=O)[C@H](CS)NC(=O)[C@H](CC(N)=O)NC(=O)[C@H](C)NC(=O)[C@H](C)N)C(=O)N[C@H](C(=O)N[C@@H](CC(C)C)C(=O)NCC(=O)N[C@@H](CCCCN)C(=O)N[C@@H](C)C(N)=O)[C@@H](C)O
## Input // which entry has the larger MIC value, P or Q ? Pick one; state its label.
## Output Q
(Q: 30 µM, P: 7.5 µM)

* * *

Assay system Candida albicans ATCC 2002; read-out recorded as MIC.
// return numeric value only (unit: µM, not printed)

Reference set, count: 2
INSERT INTO results (compound, systemtested, measurementname, readoutunits, reported) VALUES
  ('CC[C@H](C)[C@H](NC(=O)CNC(=O)[C@H](CO)NC(=O)[C@H](CC(C)C)NC(=O)[C@H](C)NC(=O)CNC(=O)[C@H](CC(C)C)NC(=O)[C@@H](NC(=O)[C@H](CC(C)C)NC(=O)[C@@H]1CCCN1C(=O)[C@H](CC(C)C)NC(=O)[C@@H](N)Cc1ccccc1)C(C)C)C(=O)N[C@@H](CC(C)C)C(=O)N1CCC[C@H]1C(=O)N[C@@H](CCCCN)C(=O)N[C@H](C(=O)N[C@@H](CC(C)C)C(N)=O)[C@@H](C)CC [FLPLVLGALSGILPKIL]', 'Candida albicans ATCC 2002', 'MIC', 'µM', 4.68),
  ('CC[C@H](C)[C@H](NC(=O)[C@@H]1CCCN1C(=O)[C@H](Cc1ccccc1)NC(=O)[C@@H](N)Cc1ccccc1)C(=O)N[C@H](C(=O)NCC(=O)N[C@@H](CCCCN)C(=O)N[C@@H](CC(C)C)C(=O)N[C@@H](CC(C)C)C(=O)N[C@@H](CO)C(=O)NCC(=O)N[C@@H](CC(C)C)C(=O)N[C@@H](CC(C)C)C(N)=O)C(C)C [FFPIVGKLLSGLL]', 'Candida albicans ATCC 2002', 'MIC', 'µM', 3.56);

Now look at this one.
## Input Item under review: CC(C)C[C@H](NC(=O)[C@H](CCCCN)NC(=O)[C@H](CCCN=C(N)N)NC(=O)[C@H](Cc1c[nH]c2ccccc12)NC(=O)[C@H](Cc1c[nH]c2ccccc12)NC(=O)[C@H](CCCCN)NC(=O)[C@H](CCCCN)NC(=O)[C@H](Cc1c[nH]c2ccccc12)NC(=O)[C@H](CCCN=C(N)N)NC(=O)[C@H](CCCCN)NC(=O)[C@@H](N)C(C)C)C(=O)N[C@@H](CCCCN)C(=O)N[C@@H](CCCCN)C(=O)N[C@@H](CO)C(=O)N[C@H](C(N)=O)C(C)C [VKRWKKWWRKLKKSV] . Reported MIC?
## Output 4.56
